Provenance of the data: the supplement of paper PMC10567573

- test.details: protein stability index of a GFP-peptide fusion (GPS, HEK-293T) (PSI 1-6); higher = more stable;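 also: 24-mer peptide tiles fused after GFP, lentivirally expressed, FACS-sorted into six equal bins by GFP/DsRed ratio, decoded by Illumina sequencing, PSI is the read-weighted mean bin number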
- setup.conditions: treatment: DMSO; c terminus: a fixed tail appended
quantity.measured: protein stability index
Reply: number alone, nothing else.

| macromolecule.sequence | value |
| --- | --- |
| IKKIEEHAPGVPKILVGNRLHLAF [RAB40A] | 2.39 |
| AAASAKDIYYNNMEEVCGGEKPYL [ATL3] | 4.21 |
| GARCATWFQDPTRFTGTMDAFVKI [SLC25A39] | 2.36 |
| DLNKDKPVIPAAALAGYTGSGPIQ [ETS1] | 4.2 |
| LPREPGDSAQFTKALAIILHLLYL [FEM1A] | 2.16 |
| HVMNPLETLSITNCRLSEGDVMHL [PRAME] | 2.54 |

Can you share its protein stability index? I mean this sequence: PCSGSVSLQPRRSIAFRLRLASFD [GMCL1]
2.58

Ok, now EDILNDPSQSEVMGEPHLMVEYKL [POMP]
3.7

Ok, now DTELLGQATLPVGSPSRPLSRRQL [C2CD2L]
4.74

Ok, now RKLSQGILIIRFEMPYNIWCDGCK [YJU2B]
2.57

Ok, now FIYMVLSLFIALITGAYDTIKHPG [MCOLN1]
2.94

Ok, now DKFQWLAGLAPPSLFARAMQVLVT [ANKRD9]
2.56

Ok, now YPIYVIPEPPPVSFQPYHPLHFRG [TENT5D]
2.35

* * *

- test.details: protein stability index of a GFP-peptide fusion (GPS, HEK-293T) (PSI 1-6); higher = more stable
- setup.conditions: treatment: MLN4924 1 uM, 8 h; c terminus: a fixed tail appended
quantity.measured: protein stability index
Reply: number alone, nothing else.

// known answers, use as guide
| macromolecule.sequence | protein stability index |
| --- | --- |
| YSLELGKAIKQKLWEALCSQGAIS [C22orf31] | 2.63 |
| REDNSGSDVLIGDILVLLGASLYA [SLC35F2] | 2.99 |
| RDTTGVSQMFPSSKARTKSLLGDD [FBF1] | 4.82 |

Can you share its protein stability index? I mean this sequence: RFQDGDNILEKEVLPPIHAYGNRT [FEM1B]
4

Ok, now KKYVKGDVSLCRWHPKPYCQALPY [FBXO34]
2.05

Ok, now DRTWTLCGTPEYLAPEVIQSKGHG [PRKX]
3.97

Ok, now EKQMEEKRRANQKSSAQGPIPWFL [PPEF2]
3.68

Ok, now NPWNWGKLAEAYLNLGPALSAALA [C8orf76]
2.44

* * *

- test.details: protein stability index of a GFP-peptide fusion (GPS, HEK-293T) (PSI 1-6); higher = more stable
- setup.conditions: treatment: MLN4924 1 uM, 8 h; c terminus: a fixed tail appended
quantity.measured: protein stability index
Reply: number alone, nothing else.

| macromolecule.sequence | protein stability index |
| --- | --- |
| LKLLDELPIAKVMKDYLKHKFDDI [ASB7] | 2.14 |
| TTTHAPPGVHRRYSALREESAKDW [PPFIA4] | 4.47 |

Now, please, on to the next sequence.
Can you share its protein stability index? I mean this sequence: SIEEILEEQRVEQQTKLEAEKLKV [LSM1]
5.2

* * *

- test.details: protein stability index of a GFP-peptide fusion (GPS, HEK-293T) (PSI 1-6); higher = more stable
- setup.conditions: treatment: MLN4924 1 uM, 8 h; c terminus: a fixed tail appended
# protein stability index per entry
Reply: number alone, nothing else.

// known answers, use as guide
| macromolecule.sequence | quantity.measured | value |
| --- | --- | --- |
| SFMPLVIKVTSATSVNLGILTADL [SLC35F2] | protein stability index | 2.87 |
| GRTHQWKPLYPDDYVHISSKPCDL [ADAMTSL2] | protein stability index | 3.42 |
| HHSRGNTNKFYMLDSRSTDRVLQW [KLHDC2] | protein stability index | 2.72 |

Can you share its protein stability index? I mean this sequence: CVPAHPPPCAWACPVPAHRRGSWR [CTBP1-DT]
2.77

Ok, now PKTGRISVPIDLQKVDQFDPFTVP [PRIM1]
3.34

Ok, now RLDASTSHQNLRVDDLSVEWDAMG [FSD1]
4.62

Ok, now KEEKEDEISLEDLIERERSALGPN [ZC3H15]
5.26

Ok, now GGGGQGDGGSSLASGSTQRQPPPP [FBXO28]
5.27

Ok, now TVDIQNPDITSSRYRGLPAPGPSP [WAS]
4.7

Ok, now LLDRARGAAAQGQTQTVAAQAQAL [PI4K2A]
4.38

* * *

- test.details: protein stability index of a GFP-peptide fusion (GPS, HEK-293T) (PSI 1-6); higher = more stable
- setup.conditions: treatment: DMSO; c terminus: a fixed tail appended
Binned protein stability index; ranges: low class (below 3), middle class (3 to below 4), high class (4 or more)

| macromolecule.sequence | group |
| --- | --- |
| EELTYIIKQDINSLNKQIAQLQDF [STX5] | low class |
| CPQSLPCFEASDCKESSPMPVICG [NANOGP8] | middle class |
| CLMLLMGTVHCQIVSTQITRPSGN [PHTF1] | middle class |
| MIARCLLAVRSLRRVGGSRILLRM [NLN] | low class |

Which protein stability index band matches DAKDAARDMNGKSLDGKAIKVEQA [RBMX] ?
high class

Ok, now NIAIMTEEPELSPAYLISEAMRRS [GFOD1]
middle class

Ok, now ITAGGENVPPIPVETLVKKKIPII [ACSBG2]
middle class

Ok, now KMKYKGQYRPSDLLCPETYVWVPI [ATE1]
low class

* * *

- test.details: protein stability index of a GFP-peptide fusion (GPS, HEK-293T) (PSI 1-6); higher = more stable
- setup.conditions: treatment: MLN4924 1 uM, 8 h; c terminus: a fixed tail appended
quantity.measured: protein stability index
Reply: number alone, nothing else.

// known answers, use as guide
| macromolecule.sequence | value |
| --- | --- |
| DLLKFEKKFQSEKAAGSVSKSTQF [FIS1] | 3.53 |
| SMENANQENEEKEQVANKGEPLAL [BEX1] | 5.11 |
| SVDIWAIGCVFAELLTGQPLWPGK [CDKL4] | 3.02 |

Can you share its protein stability index? I mean this sequence: VTETEETQEKKAESKEPIEEEPTG [SDE2]
5.85

Ok, now SLLRPLNSLAALDLSGIQTSDAAF [ZER1]
2.9

Ok, now EFKRLASSKAHTSRFISANLPCNK [PTPRD]
2.97

Ok, now HVLPAVLAEVAPVVTTEHILVSVA [PYCR3]
2.8

Ok, now KVLIQKNLGPKSKVLILRNHGLVS [ADD1]
2.16

Ok, now CNECGKAFRWGAHLVQHQRIHSGE [ZNF232]
4.53

Ok, now HNSGPPPPPARGRGAPPPPPSRAP [WASL]
5.06

Ok, now HFSQGSALILHQRIHSGEKPYGCV [ZNF24]
2.55

Ok, now VMSALWVSGLDSSYLREQMLNEPL [GAN]
2.29

Ok, now MFRSKRSGLVRRLWRSRVVPDREE [SMAD6]
3.24

* * *

- test.details: protein stability index of a GFP-peptide fusion (GPS, HEK-293T) (PSI 1-6); higher = more stable
- setup.conditions: treatment: MLN4924 1 uM, 8 h; c terminus: a fixed tail appended
# protein stability index per entry
Reply: number alone, nothing else.

// known answers, use as guide
| macromolecule.sequence | protein stability index |
| --- | --- |
| LEEGSSFWNQGLTWKVLFCSMSAT [CLCN6] | 2.63 |
| KPTVFIGVPQIWEKIHEMVKKNSA [ACSBG2] | 2.47 |
| GGGADTGTGGEEVEALQLSARWLE [FBXO33] | 5.03 |
| SPAKASQASKLRASKEEKEDWLSH [FBF1] | 4.92 |
| DYDDGFSMKHTATARFQRNHRLIS [SMARCE1] | 3.19 |

Can you share its protein stability index? I mean this sequence: LIYDFIEDQGGLEAVRQEMRRQEP [WAS]
2.75

Ok, now LELGSTEVLLDHLKAHAEEKPPSG [PLAGL1]
4.94

Ok, now RDHHSTHYRASEEEPEYGEEIKGY [CHGB]
5.05

Ok, now SKRNIKKGAVPRSIPNLAEVKKKG [HDAC6]
4.46

Ok, now TSIGMPSLMYRSPPGAEEPQAPPA [RETREG3]
4.92

Ok, now EWAALGNMSKEDAMVEFVKLLNRC [ACBD3]
2.59

Ok, now DVQNKLKESAQCVGDEFLNCKLAT [SNX8]
3.42

Ok, now VRMSADAMLKALLGSKHKVCMDLR [TNNI2]
2.1
